Kd, UniProtKB P54753, per-entry values.
Sequence (P54753 whole entry): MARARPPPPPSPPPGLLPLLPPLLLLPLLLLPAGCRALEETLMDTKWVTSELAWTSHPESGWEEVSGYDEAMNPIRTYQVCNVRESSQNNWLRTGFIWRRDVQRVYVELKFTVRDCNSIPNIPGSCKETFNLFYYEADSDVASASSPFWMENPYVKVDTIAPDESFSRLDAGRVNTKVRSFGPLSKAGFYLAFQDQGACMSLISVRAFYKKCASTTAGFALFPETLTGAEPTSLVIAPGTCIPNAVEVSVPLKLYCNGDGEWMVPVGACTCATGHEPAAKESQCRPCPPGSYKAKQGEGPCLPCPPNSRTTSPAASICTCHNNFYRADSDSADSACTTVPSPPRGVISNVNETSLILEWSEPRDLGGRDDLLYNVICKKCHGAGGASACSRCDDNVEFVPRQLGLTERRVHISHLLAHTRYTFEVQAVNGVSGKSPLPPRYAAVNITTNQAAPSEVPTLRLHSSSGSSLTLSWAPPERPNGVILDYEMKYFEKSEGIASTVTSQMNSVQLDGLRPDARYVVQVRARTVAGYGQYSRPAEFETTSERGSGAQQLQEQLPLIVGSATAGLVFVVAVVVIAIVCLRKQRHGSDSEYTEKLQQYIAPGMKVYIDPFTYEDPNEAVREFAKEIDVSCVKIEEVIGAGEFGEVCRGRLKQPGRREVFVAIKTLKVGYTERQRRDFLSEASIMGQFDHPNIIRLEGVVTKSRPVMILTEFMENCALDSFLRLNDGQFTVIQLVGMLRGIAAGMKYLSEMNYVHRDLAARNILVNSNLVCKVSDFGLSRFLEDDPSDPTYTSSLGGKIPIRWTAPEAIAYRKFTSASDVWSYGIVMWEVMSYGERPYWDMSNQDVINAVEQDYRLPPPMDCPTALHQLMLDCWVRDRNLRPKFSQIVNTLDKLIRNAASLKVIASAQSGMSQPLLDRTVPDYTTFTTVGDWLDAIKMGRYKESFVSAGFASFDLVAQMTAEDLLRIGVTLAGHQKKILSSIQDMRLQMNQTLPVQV
The source made the active and inactive calls.

A selection of reference data follows.
> print(dat)
                               smiles.entry              result
1  CC(=O)c1cnc2ccc(-c3cc(Cl)c(O)c(Cl)c3)nc2c1N[C@H]1CC[C@H](CN(C)C)CC1  > 30 µM (inactive)
2  C[C@@H](NC(=O)c1ncnc(N)c1Cl)c1ncc(C(=O)Nc2cc(C(F)(F)F)c(Cl)cn2)s1  > 30 µM (inactive)
3  NC(=O)Nc1cc(-c2cccc(F)c2)sc1C(=O)N[C@H]1CCCNC1  > 30 µM (inactive)

Please examine the following record next.
(Q) Which Kd reading was recorded for the molecule `CC(C)(C)c1nc(-c2cccc(NS(=O)(=O)c3c(F)cccc3F)c2F)c(-c2ccnc(N)n2)s1` ?
(A) > 30 µM (inactive)
